experiment: protease stability score; higher = more stable; yeast display proteolysis, trypsin and chymotrypsin;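 note: relative to predicted unfolded state with 0 unfolded-like and 1 meaning tenfold more protease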
// values below are reported protease stability score

[
  {
    "Sequence chain": "SDDEQNVRDTFTEFVESMETGDEDHMLEMVDPHVRIEFENHSHIGRDNVHRWILFFKNATLRWKLERMHVYDGRVEIHSRMEVEVNGREIEFNIILHVRKVDGKWVIHEIRIH",
    "protease stability score": 1.14
  },
  {
    "Sequence chain": "DRIEELSEEALHILKEVVRTGDERLIEENMDPNTRLEIGDKEFHGRHYAERFARDLGIKHMTFHHYETIDGRVHIHGTLHFNGRTHHTQIVLLKVNGQWRIERIHID",
    "protease stability score": 0.669
  },
  {
    "Sequence chain": "SEEDEVYEEALKITERLERTGNEEDLRTYADPHAKLRFIVDGKTIEIHGREDFVHEVVRYWKRFKNLTVRIERVEFQGDKLHLIGRLHIDGREVIIHMLSVKFNGRWFVENLHIEFV",
    "protease stability score": 1.41
  },
  {
    "Sequence chain": "HEEEEIERIAYNIYEYVRKTGDERVMTEMADPDARLIYGDKELVGREHMVQFLRWLLEQYKNVQLHIEHVEMIGDFVKIQSNLNVNGRTIEVELILLKYNGKWRIRSSVFK",
    "protease stability score": 1.07
  },
  {
    "Sequence chain": "DEDDRIHEWSMRWLIQSLRTGDEDMLREYIDPHTRVHVNGKEEHGREAADKLAKRIDHLHHLIIRSEERQGDKIIMDIERDILIDGVRINTRVSLILLKVNGRWFMKSIHFL",
    "protease stability score": 0.826
  },
  {
    "Sequence chain": "SHEDELIERFYKWLIHILETGDEERWMEYADPDARLLYNGKDLIGRDEARRQMHEMRFHHMEVKSIRVVDGKVNVTGRIDGEINGRHHEHEVLLVIIKFNGKWLIKTVQFH",
    "protease stability score": 1.22
  }
]

Source listed as the NTF2 design screens of Basanta et al. (2020).
